# TGT: EGFR del746-750 T790M (Homo sapiens, UniProt P00533, DEL746-750/T790M)
# Sequence (P00533 with tags, fused parts or gaps DEL746-750/T790M limits assumed): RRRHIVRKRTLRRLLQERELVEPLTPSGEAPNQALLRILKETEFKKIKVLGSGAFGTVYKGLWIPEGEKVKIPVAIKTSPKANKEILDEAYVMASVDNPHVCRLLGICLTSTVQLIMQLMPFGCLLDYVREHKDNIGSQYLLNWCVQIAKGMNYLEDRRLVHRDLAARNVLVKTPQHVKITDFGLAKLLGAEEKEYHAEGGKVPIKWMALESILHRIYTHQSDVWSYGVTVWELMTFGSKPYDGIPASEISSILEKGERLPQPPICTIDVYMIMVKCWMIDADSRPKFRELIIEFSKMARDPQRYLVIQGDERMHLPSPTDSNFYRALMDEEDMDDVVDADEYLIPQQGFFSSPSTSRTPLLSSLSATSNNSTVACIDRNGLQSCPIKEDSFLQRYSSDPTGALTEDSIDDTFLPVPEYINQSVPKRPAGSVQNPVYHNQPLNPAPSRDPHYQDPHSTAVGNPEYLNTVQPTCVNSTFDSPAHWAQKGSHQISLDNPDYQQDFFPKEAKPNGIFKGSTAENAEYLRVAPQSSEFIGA
# METHOD: EGFR del746-750 T790M biochemical assay (Caliper mobility shift)
# CONDITION DETAILS: 5 μM ATP; apparent Ki (Morrison fit) converted by Cheng-Prusoff, Km of ATP 2.1 μM; read-out: EGFR(T790M/d746-750) Ki
REPORTED PROPERTY: Ki (nM)
The reply should contain only the number, in nM.

IN: Find Ki for CCC(C)n1nc(N2CCNC2=O)c2cnc(Nc3ccnc(-c4cnn(S(=O)(=O)C5CC5)c4)n3)cc21 (stereo not shown) [Example 25] on EGFR del746-750 T790M (Homo sapiens, UniProt P00533, DEL746-750/T790M) and write it down.
OUT: 2.5

IN: For EGFR del746-750 T790M (Homo sapiens, UniProt P00533, DEL746-750/T790M), give the measured Ki of the entry CC[C@@H](C)n1nc(N2CC3(COC3)C2)c2cnc(Nc3ccnc(OCC(C)(C)S(C)(=O)=O)n3)cc21 [Example 96]
OUT: 17.2

IN: Consider the compound CC(C)n1nc(N2CCO[C@H](CO)C2)c2cnc(Nc3ccnc(N4CC[C@H](O)[C@H](F)C4)n3)cc21 [Example 132] tested on EGFR del746-750 T790M (Homo sapiens, UniProt P00533, DEL746-750/T790M); state its Ki.
OUT: 14.6

IN: Enter measured Ki, system EGFR del746-750 T790M (Homo sapiens, UniProt P00533, DEL746-750/T790M), for the compound shown: CC[C@H](C)n1nc(N2CC3(COC3)C2)c2cnc(Nc3ccnc(OCC(C)(C)S(C)(=O)=O)n3)cc21 [Example 71]
OUT: 13.2

IN: Provide Ki, system EGFR del746-750 T790M (Homo sapiens, UniProt P00533, DEL746-750/T790M), entry CC(C)n1nc(N2CCNC(=O)C2)c2cnc(Nc3ccnc(-c4cnn(S(=O)(=O)C5CC5)c4)n3)cc21 [Example 59]
OUT: 0.5

IN: Please look at CC(n1nc(N2CCNC2=O)c2cnc(Nc3ccnc(N4CCC(C)(O)CC4)n3)cc21)C(F)(F)F (stereo not shown) [Example 171] and tell me its recorded Ki on EGFR del746-750 T790M (Homo sapiens, UniProt P00533, DEL746-750/T790M).
OUT: 33.1

IN: Please report Ki with EGFR del746-750 T790M (Homo sapiens, UniProt P00533, DEL746-750/T790M) for item CC(C)n1nc(N2CC[S+]([O-])CC2)c2cnc(Nc3ccnc(-c4cnn(S(=O)(=O)C5CC5)c4)n3)cc21 [Example 110] .
OUT: 1.1

* * *

Kindly supply the reported Ki values for the records listed here.
# TGT: EGFR T790M L858R (Homo sapiens, UniProt P00533, L858R/T790M)
# Sequence (P00533 25-1210 T790M/L858R): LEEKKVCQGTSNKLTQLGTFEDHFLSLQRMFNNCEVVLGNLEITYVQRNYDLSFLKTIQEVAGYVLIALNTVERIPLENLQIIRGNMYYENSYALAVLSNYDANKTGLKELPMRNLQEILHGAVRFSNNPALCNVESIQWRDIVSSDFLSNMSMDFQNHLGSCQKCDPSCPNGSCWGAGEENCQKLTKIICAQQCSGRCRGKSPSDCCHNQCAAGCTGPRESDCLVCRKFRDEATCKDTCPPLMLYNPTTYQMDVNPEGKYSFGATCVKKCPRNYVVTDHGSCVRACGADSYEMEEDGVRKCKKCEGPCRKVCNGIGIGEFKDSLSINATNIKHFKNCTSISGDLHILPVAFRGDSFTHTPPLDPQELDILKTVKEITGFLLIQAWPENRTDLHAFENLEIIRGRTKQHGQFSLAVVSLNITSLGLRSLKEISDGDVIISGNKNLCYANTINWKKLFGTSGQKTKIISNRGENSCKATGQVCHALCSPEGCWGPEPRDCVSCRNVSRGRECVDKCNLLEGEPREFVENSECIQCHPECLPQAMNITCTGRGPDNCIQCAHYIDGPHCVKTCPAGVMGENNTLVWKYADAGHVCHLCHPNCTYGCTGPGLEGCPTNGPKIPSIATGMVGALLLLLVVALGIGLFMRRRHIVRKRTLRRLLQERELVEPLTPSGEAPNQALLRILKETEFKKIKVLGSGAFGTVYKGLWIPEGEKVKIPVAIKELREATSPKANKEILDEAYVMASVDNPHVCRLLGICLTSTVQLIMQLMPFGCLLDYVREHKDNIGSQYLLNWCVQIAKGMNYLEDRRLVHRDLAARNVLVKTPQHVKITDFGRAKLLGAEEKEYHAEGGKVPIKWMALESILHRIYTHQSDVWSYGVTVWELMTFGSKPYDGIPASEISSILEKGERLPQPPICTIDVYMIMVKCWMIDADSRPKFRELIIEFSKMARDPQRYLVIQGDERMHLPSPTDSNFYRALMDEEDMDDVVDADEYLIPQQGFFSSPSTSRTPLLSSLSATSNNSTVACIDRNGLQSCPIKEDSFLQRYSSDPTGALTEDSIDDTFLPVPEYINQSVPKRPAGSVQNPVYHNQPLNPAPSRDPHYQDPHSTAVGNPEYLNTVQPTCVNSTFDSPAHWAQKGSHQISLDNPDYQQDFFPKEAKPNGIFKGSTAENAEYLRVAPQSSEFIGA
# METHOD: EGFR T790M L858R biochemical assay (Caliper mobility shift)
# CONDITION DETAILS: 5 μM ATP; apparent Ki (Morrison fit) converted by Cheng-Prusoff, Km of ATP 1.3 μM

IN: Fetch value of Ki on EGFR T790M L858R (Homo sapiens, UniProt P00533, L858R/T790M) for CC[C@@H](C)n1nc(N2CC3(COC3)C2)c2cnc(Nc3ccnc(N4CC[C@@](C)(O)[C@@H](F)C4)n3)cc21 (single isomer, unassigned) .
OUT: 3.2 nM

IN: Report measured Ki on EGFR T790M L858R (Homo sapiens, UniProt P00533, L858R/T790M); entry: CC(C)n1nc(N2CC[C@@H](N)C2=O)c2cnc(Nc3ccnc(N4CCC(C)(O)CC4)n3)cc21
OUT: 18.5 nM

IN: Supply Ki measured with EGFR T790M L858R (Homo sapiens, UniProt P00533, L858R/T790M) for CC(C)n1nc(N2CC(O)CC2=O)c2cnc(Nc3ccnc(N4CC[C@H](O)[C@H](F)C4)n3)cc21 (mixture of isomers) .
OUT: 2 nM

IN: State recorded Ki with EGFR T790M L858R (Homo sapiens, UniProt P00533, L858R/T790M), entry CC(C)n1nc(N)c2cnc(Nc3ccnc(-c4cnn(S(=O)(=O)C5CC5)c4)n3)cc21 , no comment.
OUT: 0.8 nM

IN: Look up and report measured Ki (EGFR T790M L858R (Homo sapiens, UniProt P00533, L858R/T790M)) for the following compound: CCC(C)n1nc(N2CC(O)(CO)C2)c2cnc(Nc3ccnc(N4CCC(C)(O)CC4)n3)cc21 (racemic)
OUT: 4.1 nM

IN: Quote EGFR T790M L858R (Homo sapiens, UniProt P00533, L858R/T790M) Ki for entry CC[C@H](C)n1nc(N2CC[C@@H](O)C2)c2cnc(Nc3ccnc(N4CC[C@](C)(C(N)=O)C4)n3)cc21 (relative stereo) .
OUT: 143 nM

IN: Name the value of Ki reported for CCC(C)n1nc(N2CC3(COC3)C2)c2cnc(Nc3ccnc(N4CC[C@@H](O)[C@@H](F)C4)n3)cc21 (single isomer, unassigned) [Example 197] when tested on EGFR T790M L858R (Homo sapiens, UniProt P00533, L858R/T790M).
OUT: 1.2 nM

IN: For EGFR T790M L858R (Homo sapiens, UniProt P00533, L858R/T790M), give Ki of the listed compound: CC1CN(c2nn(C(C)C)c3cc(Nc4ccnc(N5CC[C@H](O)[C@H](F)C5)n4)ncc23)C(=O)N1 (relative stereo)
OUT: 2.5 nM

IN: Look up EGFR T790M L858R (Homo sapiens, UniProt P00533, L858R/T790M) data: Ki of CC(C)n1nc(N2CCC(O)C2=O)c2cnc(Nc3ccnc(-c4cnn(S(=O)(=O)C5CC5)c4)n3)cc21 (stereo in doubt) , then report it.
OUT: 1.5 nM

IN: Provide Ki, system EGFR T790M L858R (Homo sapiens, UniProt P00533, L858R/T790M), entry CCC(C)n1nc(N2CC3(COC3)C2)c2cnc(Nc3ccnc(-c4cnn(S(=O)(=O)C5CC5)c4)n3)cc21 (racemic)
OUT: 1 nM

IN: Output reported Ki of the compound CC(C)n1nc(N2CCCC2=O)c2cnc(Nc3ccnc(-c4cnn(S(=O)(=O)C5CC5)c4)n3)cc21 on EGFR T790M L858R (Homo sapiens, UniProt P00533, L858R/T790M).
OUT: 2.1 nM

IN: Please respond with reported Ki (system EGFR T790M L858R (Homo sapiens, UniProt P00533, L858R/T790M)) for CC(O)C(=O)N1CCN(c2nn(C(C)C)c3cc(Nc4ccnc(N5CCC(C)(O)CC5)n4)ncc23)CC1 (centres unmarked) .
OUT: 10.6 nM

IN: Consider the compound CC(C)n1nc(NCCO)c2cnc(Nc3ccnc(-c4cnn(S(=O)(=O)C5CC5)c4)n3)cc21 tested on EGFR T790M L858R (Homo sapiens, UniProt P00533, L858R/T790M); state its Ki.
OUT: 0.9 nM

IN: Please respond with reported Ki (system EGFR T790M L858R (Homo sapiens, UniProt P00533, L858R/T790M)) for CCC(C)n1nc(N2CC3(COC3)C2)c2cnc(Nc3ccnc(N4CCC(C)(O)CC4)n3)cc21 (centres unmarked) .
OUT: 2.8 nM

This collection of values is drawn from patent US9951064B2.
